measurementTarget: Proprotein convertase subtilisin/kexin type 9 (Homo sapiens)
Sequence (Q8NBP7 31-152 limits assumed): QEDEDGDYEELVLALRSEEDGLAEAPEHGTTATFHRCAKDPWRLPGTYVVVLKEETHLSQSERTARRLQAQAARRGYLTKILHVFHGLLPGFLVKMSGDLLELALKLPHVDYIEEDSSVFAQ
Sequence (Q8NBP7 153-692 limits assumed): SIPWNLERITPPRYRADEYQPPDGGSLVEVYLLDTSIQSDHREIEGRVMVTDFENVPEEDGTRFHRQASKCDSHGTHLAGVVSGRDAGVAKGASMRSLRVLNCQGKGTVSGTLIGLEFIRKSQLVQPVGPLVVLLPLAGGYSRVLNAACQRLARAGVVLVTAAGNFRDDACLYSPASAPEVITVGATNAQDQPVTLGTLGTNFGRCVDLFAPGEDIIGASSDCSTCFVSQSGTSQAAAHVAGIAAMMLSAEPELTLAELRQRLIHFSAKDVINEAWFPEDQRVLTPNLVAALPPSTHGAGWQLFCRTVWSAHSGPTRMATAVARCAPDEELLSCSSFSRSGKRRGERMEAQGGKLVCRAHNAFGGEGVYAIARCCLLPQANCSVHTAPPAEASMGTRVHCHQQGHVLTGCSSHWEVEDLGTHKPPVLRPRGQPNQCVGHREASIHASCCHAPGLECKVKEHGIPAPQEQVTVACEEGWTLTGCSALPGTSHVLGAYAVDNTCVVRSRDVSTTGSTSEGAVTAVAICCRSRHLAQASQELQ
method: Binding affinity to human PCSK9
Numbered stars: 1 amine (or outer) side, 2 acyl side, 3 side chain; on linkers, the order of the positions; unused ones are H or OH. Square brackets hold non-standard residues; d marks the D form. Peptide text beside a SMILES is read from it. X1 = O=C(C1(N[*:1])CCC(c2ccccc2)CC1)[*:2]; hArg = N=C(N)NCCCC[C@H](N)C(=O)O
measure: Kd (µM)
Use µM as the unit, but write only the number.

Below, 3 molecules whose answers are already recorded.
{"molecule": "CC[C@H](C)[C@H](NC(=O)[C@H](CCCCNC(=N)N)NC(=O)[C@H](CCCCN)NC(=O)[C@H](CC(C)C)NC(=O)[C@H](CC(N)=O)NC(=O)[C@H](Cc1c[nH]c2ccccc12)NC(=O)C1(N)CCC(c2ccccc2)CC1)C(=O)NCC(=O)N[C@@H](CC(C)C)C(=O)N[C@@H](CC(C)C)C(=O)N[C@@H](CCCNC(=N)N)C(=O)O (some centres undefined) (H-[X1]WNLK[hArg]IGLLR-OH)", "unitName": "µM", "assayResult": 0.39}
{"molecule": "CC(C)[C@@H]1NC(=O)[C@H](Cc2ccccc2)NC(=O)CSC[C@@H](C(=O)NCC(N)=O)NC(=O)[C@@H]2CCCN2C(=O)[C@H](CCCNC(=N)N)NC(=O)[C@H](CC(=O)O)NC(=O)[C@H](C)N(C)C(=O)[C@H](Cc2ccc(-c3ccccc3)cc2)NC(=O)[C@H](C)N(C)C(=O)[C@H](Cc2ccc(-c3ccccc3)cc2)NC(=O)[C@H]([C@@H](C)O)NC(=O)[C@H]([C@@H](C)O)NC(=O)[C@H](CO)NC1=O", "unitName": "µM", "assayResult": 0.0003}
{"molecule": "CCNC(=O)[C@@H]1CSCC(=O)N[C@@H](Cc2ccccc2)C(=O)N[C@@H](C(C)C)C(=O)N2CCC[C@H]2C(=O)N[C@@H]([C@@H](C)O)C(=O)N[C@@H]([C@@H](C)O)C(=O)N[C@@H](Cc2ccc(-c3ccccc3)cc2)C(=O)N(C)[C@@H](C)C(=O)N[C@@H](Cc2ccc(-c3ccccc3)cc2)C(=O)N(C)[C@@H](C)C(=O)N[C@@H](CCC(=O)O)C(=O)N[C@@H](C)C(=O)N2CCC[C@H]2C(=O)N1", "unitName": "µM", "assayResult": 0.0061}

Please look at the following molecule next.
Data point: CC[C@H](C)[C@H](NC(=O)[C@H](CCCCNC(=N)N)NC(=O)[C@@H](NC(=O)[C@H](CC(C)C)NC(=O)[C@H](CC(N)=O)NC(=O)[C@H](Cc1c[nH]c2ccccc12)NC(=O)CNC(=O)[C@@H]1CCCN1C(=O)[C@H](Cc1ccccc1)NC(=O)[C@H](CO)NC(=O)[C@H](CCC(=O)O)NC(=O)[C@@H](N)CCSC)C(C)C)C(=O)NCC(=O)N[C@@H](CC(C)C)C(=O)N[C@@H](CC(C)C)C(=O)N[C@@H](CCCNC(=N)N)C(=O)O (H-MESFPGWNLV[hArg]IGLLR-OH) ; Kd = 0.7

* * *

measurementTarget: PCSK9/LDLR (Homo sapiens, UniProt Q8NBP7)
Sequence (Q8NBP7 31-152 limits assumed): as the sequence (Q8NBP7 31-152 limits assumed) above
Sequence (Q8NBP7 153-692 limits assumed): as the sequence (Q8NBP7 153-692 limits assumed) above
Sequence (P01130 22-860 partner limits assumed): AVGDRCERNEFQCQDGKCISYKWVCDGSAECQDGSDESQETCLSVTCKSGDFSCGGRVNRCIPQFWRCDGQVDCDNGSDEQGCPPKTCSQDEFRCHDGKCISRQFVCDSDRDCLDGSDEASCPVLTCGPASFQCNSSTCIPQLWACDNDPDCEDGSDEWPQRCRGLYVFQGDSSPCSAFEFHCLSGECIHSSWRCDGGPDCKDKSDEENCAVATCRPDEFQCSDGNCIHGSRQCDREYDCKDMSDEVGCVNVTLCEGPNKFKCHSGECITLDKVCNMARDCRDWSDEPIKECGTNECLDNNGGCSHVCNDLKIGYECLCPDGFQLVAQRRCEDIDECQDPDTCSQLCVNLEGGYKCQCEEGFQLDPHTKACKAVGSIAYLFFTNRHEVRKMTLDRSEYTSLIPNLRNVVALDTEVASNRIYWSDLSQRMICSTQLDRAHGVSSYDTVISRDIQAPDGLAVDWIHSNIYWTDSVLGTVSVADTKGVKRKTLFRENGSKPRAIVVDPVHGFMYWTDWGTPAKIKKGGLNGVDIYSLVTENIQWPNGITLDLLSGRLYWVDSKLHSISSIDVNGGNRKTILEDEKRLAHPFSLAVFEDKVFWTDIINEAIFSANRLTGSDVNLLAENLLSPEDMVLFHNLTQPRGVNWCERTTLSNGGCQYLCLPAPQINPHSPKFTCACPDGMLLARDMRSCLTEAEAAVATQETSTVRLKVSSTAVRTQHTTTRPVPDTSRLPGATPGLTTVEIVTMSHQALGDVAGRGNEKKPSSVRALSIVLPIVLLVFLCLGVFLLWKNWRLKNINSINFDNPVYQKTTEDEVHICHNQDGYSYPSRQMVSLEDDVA
method: Inhibition of PCSK9-LDLR (unknown origin) protein-protein interaction
Peptide text beside a SMILES is read from it.
measure: pIC50
Keep in mind that pIC50 stands for -log10 of concentration in molar terms.

Please review the following examples before continuing.
{"compound": "CC(C)C[C@H](N)C(=O)N1CCC[C@H]1C(=O)N[C@@H](CCCCN)C(=O)N[C@@H](Cc1c[nH]cn1)C(=O)N[C@@H](CO)C(=O)N[C@@H](C)C(=O)N[C@@H](CC(=O)O)C(=O)O (H-LPKHSAD-OH)", "pIC50": 5.77}
{"compound": "CC(=O)N[C@H](C(=O)N[C@H](C(=O)N[C@@H](Cc1ccccc1)C(=O)N[C@H](C(=O)N[C@@H](CO)C(=O)N[C@@H](Cc1c[nH]c2ccccc12)C(=O)N[C@@H](CCC(=O)O)C(=O)N[C@@H](CCC(=O)O)C(=O)N[C@@H](Cc1ccc(O)cc1)C(=O)N[C@@H](CC(C)C)C(=O)N[C@@H](CC(=O)O)C(=O)N[C@@H](Cc1c[nH]c2ccccc12)C(=O)N[C@H](C(N)=O)C(C)C)[C@@H](C)O)C(C)C)[C@@H](C)O", "pIC50": 6.10}

// moving on: another record for pIC50
Briefly, pIC50 measured for CC(C)C[C@H](NC(=O)[C@H](Cc1ccc(O)cc1)NC(=O)[C@@H](N)CC(C)C)C(=O)N1CCC[C@H]1C(=O)N[C@@H](CCCCN)C(=O)N[C@@H](Cc1c[nH]cn1)C(=O)N[C@@H](CO)C(=O)N[C@@H](CC(=O)O)C(=O)N[C@@H](CCCNC(=N)N)C(=O)N[C@@H](CC(=O)O)C(=O)O (H-LYLPKHSDRD-OH) : 6.15

Values from ChEMBL document CHEMBL5233285
